Answer each item with its documented melting point.

# input molecule: `Fc1cccc(COc2ccc(Nc3ncnc4sc(C#Cc5ccccn5)cc34)cc2Cl)c1` ; wanted: its melting point
180 °C

# input molecule: `CCCCCCCc1ccc(-c2ccc(OC)cc2)nc1` ; wanted: its melting point
54.4 to 56.5 °C

# input molecule: `Oc1nc(-c2ccc(Cl)cc2)nc2c1CCC2` ; wanted: its melting point
282 °C

# input molecule: `COc1cc(CCl)cc(OC)c1OCc1nc(-c2ccccc2)oc1C` ; wanted: its melting point
118 to 119 °C

# input molecule: `CN1Cc2c(C(=O)OC(C)(C)C)ncn2-c2cccc(C#N)c2C1=O` ; wanted: its melting point
213 to 215 °C

# input molecule: `NS(=O)(=O)c1cccc(S(=O)(=O)NC2CC2)c1` ; wanted: its melting point
170 to 174 °C

# input molecule: `CCc1nc2c(N)nc3ccccc3c2n1CC#Cc1cccc([N+](=O)[O-])c1` ; wanted: its melting point
224 to 243 °C

# input molecule: Nc1ccc2[nH]cc(C3=CCN4CCCC4C3)c2c1 (stereo not drawn) ; wanted: its melting point
208 to 210 °C

* * *

readout_name: melting point

# input compound: `CCCCCCCC(=O)NNC(=O)N1Cc2ccccc2Oc2ccc(Cl)cc21` ; wanted: its melting point
127 to 129 °C

# input compound: `COc1cccc(F)c1-n1nnc2cc(C(C)(C)C)c(OCc3ncnn3C)nc21` ; wanted: its melting point
116 to 118 °C

# input compound: `CN(CCCCCNC(=O)NCCCOc1cccc(CN2CCCCC2)c1)CCN(Cc1ccc(F)cc1)c1ccccn1` ; wanted: its melting point
63 °C

# input compound: `COc1ccc(Cl)cc1NC(=O)Nc1ccc(N2CCN(C(=O)OC(C)(C)C)CC2)cc1` ; wanted: its melting point
205 °C

# input compound: `COc1ccc(C2C(=O)N(c3ccccc3)N(c3ccccc3)C2=O)cc1` ; wanted: its melting point
184 to 185 °C

# input compound: `CS(=O)(=O)c1ccc(-c2cc(C(=O)CCCO)nn2-c2ccc(F)cc2)cc1` ; wanted: its melting point
164 to 166 °C

# input compound: COc1ccc(COC(=O)C2N(c3c(C)cccc3C)C(=N)C(C)N2c2c(C)cccc2C)cc1 (stereo not drawn) ; wanted: its melting point
135 to 137 °C

# input compound: `COc1ccc(-c2ccccc2[N+](=O)[O-])cc1` ; wanted: its melting point
55 to 56 °C

* * *

readout_name: melting point

# input molecule: `COCCCC#Cc1ccccc1S(N)(=O)=O` ; wanted: its melting point
59 to 61 °C

# input molecule: `COC(=O)C#CC(=O)c1ccc(OC)c(OC)c1OC` ; wanted: its melting point
74 °C

# input molecule: Cn1nc(C(=O)OCC23CCCN(CC2)C3)c2ccccc21 (stereo not drawn) ; wanted: its melting point
93 to 95 °C

# input molecule: `Cc1ccc(S(=O)(=O)N2C[C@H]3C[C@@H]2CN3Cc2ccccc2)cc1` ; wanted: its melting point
124 °C

# input molecule: `CC1(C(=O)c2c[nH]c3ncc(-c4cccc(N5CCCC5)c4)nc23)CCCCCC1` ; wanted: its melting point
192 to 193 °C

# input molecule: `Cc1ccc(C)c(CNc2c(NC(C)(C)C)c(=O)c2=O)c1` ; wanted: its melting point
246 to 247 °C

# input molecule: COc1ccc(C2C(Oc3ccccc3)C(=O)N2c2cc(OC)c(OC)c(OC)c2)cc1O (stereo not drawn) ; wanted: its melting point
176 to 180 °C

# input molecule: COC(=O)c1ccc(C)c(C2=NC(C)(C(C)C)C(=O)N2)c1Cl (stereo not drawn) ; wanted: its melting point
181 to 183 °C

* * *

readout_name: melting point

# input compound: `CCc1c2nc(-c3cc(C(C)=O)cnc3OCC(C)C)[nH]c(=O)c2nn1C1CCN(C)CC1` ; wanted: its melting point
195 to 196 °C

# input compound: `N#Cc1cc(C(=O)NNC(=O)c2occc2-c2cccc(OCc3ccccc3)c2)ccc1O` ; wanted: its melting point
190 to 195 °C

# input compound: c1ccc2c(c1)CCc1cccnc1C2C1CCNCC1 (centres undefined) ; wanted: its melting point
111 to 114 °C

# input compound: `CN(C(=O)Nc1ccc2c(ccn2C)c1)c1cccnc1` ; wanted: its melting point
58 to 60 °C

# input compound: `O=c1ccc(-c2c(-c3ccccc3)nn3ccccc23)nn1C1=C(CCO)CCCC1` ; wanted: its melting point
198 to 199 °C

# input compound: `COc1ccc2c(C(=O)C=[N+]=[N-])nn(Cc3ccc(Cl)c(Cl)c3)c(=O)c2c1` ; wanted: its melting point
129 to 130 °C

# input compound: `CC(=O)NC[C@H]1CN(c2ccc(N3CCC4(CC3)C[C@@H]4C#N)c(F)c2)C(=O)O1` ; wanted: its melting point
156 °C

# input compound: `CCCCOc1cc(CCC(=O)O)ccc1-c1cccc(CN(C)C(=O)c2cccc(OC)c2)c1` ; wanted: its melting point
80 to 82 °C

# input compound: `CC1(C(=O)c2c[nH]c3ncc(-c4cccc(N5CCOCC5)c4)nc23)CCCCC1` ; wanted: its melting point
208 to 209 °C

# input compound: `COc1nc(C)c(C)cc1[N+](=O)[O-]` ; wanted: its melting point
71 to 73 °C

# input compound: `O=c1ccnc(NCCCN(Cc2ccccc2)c2ccccn2)[nH]1` ; wanted: its melting point
162 to 163 °C

# input compound: `COc1ccc(-c2ccc(=O)n(Cc3ccc(Cl)cc3F)c2)cn1` ; wanted: its melting point
136 °C

# input compound: `CSCC1=C(c2ccccc2)C(=O)N(C(C)(C)C(=O)O)CO1` ; wanted: its melting point
136 to 137 °C

# input compound: `CCOC(=O)c1c(C(=O)O)ccc(OC)c1OC` ; wanted: its melting point
148 to 149 °C

* * *

Answer each item with its documented melting point.

# input compound: `Cc1cc(-c2cc(F)c(F)cc2-c2ccc(S(C)(=O)=O)cc2)ccc1F` ; wanted: its melting point
167 to 168 °C

# input compound: COc1cc([C@H]2CC[C@H](c3cc(OC)c(OC)c(OC)c3)S2)cc(OC)c1OC (relative stereo) ; wanted: its melting point
133 to 134 °C

# input compound: `Cn1cc(-c2cc(-c3cnc(N)c(C(F)(F)F)c3)ccn2)n(-c2ccc(C(C)(C)C#N)cc2)c1=O` ; wanted: its melting point
195 °C

# input compound: `COc1ccc(C=Nc2ccc(S(=O)(=O)NC(C)(C)C)cc2)cc1F` ; wanted: its melting point
129 to 131 °C

# input compound: `O=S1(=O)c2ccccc2C(CCCl)(CCCl)c2ccccc21` ; wanted: its melting point
186 to 190 °C

# input compound: `COc1ccc(C(=O)CCCC(=O)C(F)(F)F)cc1` ; wanted: its melting point
67.5 to 68.9 °C

# input compound: `COc1ccc2cc3c(Cl)c(C#N)cnc3cc2c1` ; wanted: its melting point
258 to 260 °C

# input compound: CCOC(=O)c1cn2c3c(c(C(C#N)C(=O)OCC)c(F)cc3c1=O)CCN2C (centres undefined) ; wanted: its melting point
153 to 154 °C

# input compound: COC(=O)NNc1cc(Cl)c(C)c2c1OC(C)C2 (centres undefined) ; wanted: its melting point
112 to 114 °C

# input compound: `CC(C)(N)CCOc1ccc(Cl)nn1` ; wanted: its melting point
63.5 to 65 °C

# input compound: O=C(Nc1ccc(Br)cn1)C(CC1CCCC1)c1ccc(Cl)c([N+](=O)[O-])c1 (centres undefined) ; wanted: its melting point
128 to 130 °C

# input compound: `COc1cc(NS(=O)(=O)CCCCl)cc(OC)c1` ; wanted: its melting point
68 to 71 °C

# input compound: `COc1ccc2cc3c(c(-c4ccc(C)cc4)c2c1)CNC3=O` ; wanted: its melting point
298 to 301 °C

# input compound: `CCc1csc2c(C(=O)O)c(=O)c3cc(F)c(N4CCNCC4)cc3n12` ; wanted: its melting point
247 to 251 °C

# input compound: `COc1ccc(S(=O)(=O)n2c(=O)[nH]c3cc(Cl)ccc3c2=O)cc1OC` ; wanted: its melting point
> 250 °C

# input compound: `COC1=NS(=O)(=O)N(C)C(OCCc2ccccc2)=N1` ; wanted: its melting point
74 to 77 °C

# input compound: CC(=O)c1ccc(SC2SCC(O)C(O)C2O)cc1 (centres undefined) ; wanted: its melting point
175 °C

# input compound: `Cn1nc(-c2cnc3[nH]cc(C(=O)NCC(C)(C)CO)c3n2)c2ccc(F)cc21` ; wanted: its melting point
291 to 293 °C

# input compound: CC(C)(C)COc1cccc(C[C@@H](NC(=O)c2cccc3c(Cl)cccc23)[C@@H](O)c2cccc(Cl)c2)c1 (racemic) ; wanted: its melting point
142 to 143 °C

# input compound: COC(=O)Nc1nc2cc(C(N)c3ccccc3)ccc2[nH]1 (centres undefined) ; wanted: its melting point
> 232 °C

# input compound: COC1c2ccccc2CSc2ccc(C#N)cc21 (centres undefined) ; wanted: its melting point
117 to 118 °C

# input compound: `CCCC[C@@H]1CCc2ccc(OCc3ccc4ccccc4n3)cc2[C@H]1O` ; wanted: its melting point
58 to 59 °C

# input compound: `Cc1nn(-c2c(Cl)cc(C(F)(F)F)cc2Cl)nc1C=NC(C#N)=C(N)C#N` ; wanted: its melting point
238 to 239 °C

# input compound: CCc1cccc2oc(C(=O)Nc3ccc(-c4ccc(S(=O)(=O)NC(C(=O)O)C(C)C)cc4)cc3)c(C)c12 (centres undefined) ; wanted: its melting point
239 to 241 °C

# input compound: CC(C(=O)CCc1ccc(OC(F)(F)F)cc1)n1cncn1 (centres undefined) ; wanted: its melting point
58 °C

# input compound: `COc1cc(Nc2c(C#N)cnc3cc(-c4cccc([N+](=O)[O-])c4)ccc23)c(Cl)cc1Cl` ; wanted: its melting point
287 to 288 °C

# input compound: `Fc1ccc(COc2cccnc2NC(=S)Nc2ccc(Cl)cc2)c(F)c1` ; wanted: its melting point
154 to 156 °C

# input compound: `CC(C)(C)OC(=O)CN(C(=O)CN1C(=O)c2ccccc2C1=O)c1ccccc1Cc1ccccc1` ; wanted: its melting point
190 °C

# input compound: `CCCCC[C@H]1CC[C@H](c2ncc(-c3ccc(CCCC)cc3)cn2)CC1` ; wanted: its melting point
87 °C

# input compound: CN1C(=O)c2ccccc2CC12c1ccccc1C(=O)N2C (centres undefined) ; wanted: its melting point
202 to 203 °C

# input compound: `OCc1cc2c3ccccc3n(Cc3ccccc3)c2s1` ; wanted: its melting point
81 to 82 °C

# input compound: `Oc1cc(O)c2cc(-c3cc(F)cc(F)c3)oc2c1` ; wanted: its melting point
208 to 209 °C

# input compound: `CN1c2ccc(Cl)cc2NC(=S)c2cscc21` ; wanted: its melting point
238 to 240 °C

# input compound: `COC(=O)[C@H]1CC[C@H](NC(=O)c2cc(-c3ccc(C#N)cc3)nn(Cc3ccccc3)c2=O)CC1` ; wanted: its melting point
217 to 220 °C
